# Test system: AB5075
# Assay overview: Broth microdilution clarithromycin (CLR) potentiation and dose-response of adjuvant
# Type: cell-based, Acinetobacter baumannii
# Condition description: compound tested at 20 μM
Assay metric: Fold Reduction of CLR MIC (fold)
Write the value in fold as a bare number.

Note to self: Fold Reduction of CLR MIC recorded for COc1cc(-c2c[nH]c(N)n2)ccc1NC(=O)c1cc(Cl)cc(Cl)c1.Cl was 8

Note to self: Fold Reduction of CLR MIC recorded for Cc1cc(-c2c[nH]c(N)n2)ccc1NC(=O)c1cc(Cl)cc(Cl)c1.Cl [Compound 10a] was 32

Note to self: Fold Reduction of CLR MIC recorded for Cl.Nc1nc(-c2ccc(NC(=O)c3cc(Cl)cc(Cl)c3)cc2F)c[nH]1 [Compound 10d] was 128

Note to self: Fold Reduction of CLR MIC recorded for Cl.Nc1nc(-c2ccc(NC(=O)c3cc(Br)cc(Br)c3)cc2F)c[nH]1 [Compound 15a] was 4

Note to self: Fold Reduction of CLR MIC recorded for Cc1cc(NC(=O)c2cc(Cl)cc(Cl)c2)ccc1-c1c[nH]c(N)n1.Cl was 64

Note to self: Fold Reduction of CLR MIC recorded for Cl.Nc1nc(-c2ccc(NC(=O)c3ccc(Cl)c(Cl)c3)cc2F)c[nH]1 [Compound 15b] was 64

Note to self: Fold Reduction of CLR MIC recorded for Cl.Nc1nc(-c2ccc(NC(=O)c3cc(Cl)cc(Cl)c3)cc2Cl)c[nH]1 [Compound 10e] was 64

====

# Test system: AB5075
# Assay overview: Broth microdilution clarithromycin (CLR) potentiation and dose-response of adjuvant
# Assay type: cell-based, Acinetobacter baumannii
# Condition description: compound tested at 15 μM
Assay metric: CLR MIC (µg/mL)
Write the value in µg/mL as a bare number.

Note to self: CLR MIC recorded for Cl.Nc1nc(-c2ccc(NC(=O)Nc3cc(Br)cc(Br)c3)cc2)c[nH]1 [Compound 20a] was 0.125

Note to self: CLR MIC recorded for Cl.Nc1nc(-c2ccc(NC(=O)c3ccc(C(F)(F)F)c(F)c3)cc2)c[nH]1 was 0.5

Note to self: CLR MIC recorded for Cl.Nc1nc(-c2ccc(NC(=O)c3ccc(C(F)(F)F)c(Cl)c3)cc2F)c[nH]1 [Compound 17a] was 0.25

Note to self: CLR MIC recorded for Cl.Nc1nc(-c2ccc(NC(=O)c3cc(C(F)(F)F)cc(C(F)(F)F)c3)cc2)c[nH]1 was 8

Note to self: CLR MIC recorded for Cl.Nc1nc(-c2ccc(NC(=O)c3ccc(Cl)c(C(F)(F)F)c3)cc2F)c[nH]1 [Compound 17b] was 0.25

====

# System: AB5075
# Assay overview: Broth microdilution clarithromycin (CLR) potentiation and dose-response of adjuvant
# Format: cell-based, Acinetobacter baumannii
# Condition description: compound tested at 20 μM
T if CLR MIC is below 0.5 µg/mL. F if not; exact matches included in F.

Is CLR MIC strictly under 0.5 µg/mL for the entry Cl.Nc1nc(-c2ccc(NC(=O)c3cc(Cl)c(Br)c(Cl)c3)cc2)c[nH]1 [Compound 4y] ?
T

Is CLR MIC strictly under 0.5 µg/mL for the entry Cl.Nc1nc(-c2ccc(NC(=O)c3ccc(Br)cc3F)cc2)c[nH]1 [Compound 4u] ?
F

Is CLR MIC strictly under 0.5 µg/mL for the entry COc1cc(-c2c[nH]c(N)n2)ccc1NC(=O)c1cc(Cl)cc(Cl)c1.Cl [Compound 6a] ?
F

Is CLR MIC strictly under 0.5 µg/mL for the entry Cc1cc(-c2c[nH]c(N)n2)ccc1NC(=O)c1cc(Cl)cc(Cl)c1.Cl [Compound 10a] ?
F

Is CLR MIC strictly under 0.5 µg/mL for the entry Cl.Nc1nc(-c2c(F)cc(NC(=O)c3cc(Cl)cc(Cl)c3)cc2F)c[nH]1 [Compound 13] ?
F

Is CLR MIC strictly under 0.5 µg/mL for the entry Cl.Nc1nc(-c2ccc(NC(=O)c3ccc(Cl)cc3)cc2)c[nH]1 [Compound 4i] ?
F

Is CLR MIC strictly under 0.5 µg/mL for the entry Cl.Nc1nc(-c2ccc(NC(=O)c3cc(Br)cc(Br)c3)cc2F)c[nH]1 [Compound 15a] ?
F

Is CLR MIC strictly under 0.5 µg/mL for the entry Cl.Nc1nc(-c2ccc(NC(=O)c3cc(Cl)cc(Cl)c3)cc2F)c[nH]1 [Compound 10d] ?
T

Is CLR MIC strictly under 0.5 µg/mL for the entry Cl.Nc1nc(-c2ccc(NC(=O)Nc3ccc(Cl)c(Cl)c3)cc2)c[nH]1 [Compound 20c] ?
T

Is CLR MIC strictly under 0.5 µg/mL for the entry Cl.Nc1nc(-c2ccc(NC(=O)c3cc(F)c(F)c(F)c3)cc2)c[nH]1 [Compound 4v] ?
F

Is CLR MIC strictly under 0.5 µg/mL for the entry Cl.Nc1nc(-c2ccc(NC(=O)c3cccc(Cl)c3)cc2)c[nH]1 [Compound 4d] ?
F

Is CLR MIC strictly under 0.5 µg/mL for the entry Cl.Nc1nc(-c2ccc(NC(=O)c3c(Cl)cc(Cl)cc3Cl)cc2)c[nH]1 [Compound 4s] ?
F

====

# System: AB5075
# Assay overview: Broth microdilution clarithromycin (CLR) potentiation and dose-response of adjuvant
# Assay type: cell-based, Acinetobacter baumannii
# Condition description: compound tested at 5 μM
# Method: Bacterial Strains and Antimicrobial Agents. Acinetobacter baumannii clinical isolate 5075 was obtained from Dr. Colin Manoil at the University of Washington. Colonies were grown on lysogeny broth (LB) agar. […] Broth microdilution method for antibiotic potentiation. […] MIC values were determined as the lowest concentration at which no bacterial growth was observed, and fold reductions were determined by comparison to antibiotic control lane. […]
Assignment: determine reported CLR MIC for the given compounds.
Write the value in µg/mL as a bare number.

Tested system AB5075; CLR MIC recorded for Cl.Nc1nc(-c2ccc(NC(=O)c3ccc(Cl)c(Cl)c3)cc2F)c[nH]1 [Compound 15b] was 8

Tested system AB5075; CLR MIC recorded for Cl.Nc1nc(-c2ccc(NC(=O)Nc3cc(Br)cc(Br)c3)cc2)c[nH]1 [Compound 20a] was 4

Tested system AB5075; CLR MIC recorded for Cl.Nc1nc(-c2ccc(NC(=O)Nc3cc(Cl)cc(Cl)c3)cc2)c[nH]1 [Compound 20b] was 8

Tested system AB5075; CLR MIC recorded for Cl.Nc1nc(-c2ccc(NC(=O)Nc3ccc(Cl)c(Cl)c3)cc2)c[nH]1 [Compound 20c] was 8

Tested system AB5075; CLR MIC recorded for Cl.Nc1nc(-c2ccc(NC(=O)c3cc(Cl)cc(Cl)c3)cc2F)c[nH]1 [Compound 10d] was 8

Tested system AB5075; CLR MIC recorded for Cl.Nc1nc(-c2ccc(NC(=O)c3ccc(C(F)(F)F)c(F)c3)cc2)c[nH]1 was 16

====

# System: AB5075
# Assay overview: Broth microdilution clarithromycin (CLR) potentiation and dose-response of adjuvant
# Assay type: cell-based, Acinetobacter baumannii
# Condition description: compound tested at 30 μM
# Method: Bacterial Strains and Antimicrobial Agents. Acinetobacter baumannii clinical isolate 5075 was obtained from Dr. Colin Manoil at the University of Washington. Colonies were grown on lysogeny broth (LB) agar. […] Broth microdilution method for antibiotic potentiation. […] MIC values were determined as the lowest concentration at which no bacterial growth was observed, and fold reductions were determined by comparison to antibiotic control lane. […]
Assay metric: CLR MIC (µg/mL)
Write the value in µg/mL as a bare number.

Note to self: CLR MIC recorded for Cl.Nc1nc(-c2ccc(NC(=O)c3cc(Cl)cc(Cl)c3)c(Cl)c2)c[nH]1 [Compound 10b] was 16

Note to self: CLR MIC recorded for Cl.Nc1nc(-c2ccc(NC(=O)c3cccc(Cl)c3Cl)cc2)c[nH]1 [Compound 4q] was 8

Note to self: CLR MIC recorded for Cl.Nc1nc(-c2ccc(NC(=O)c3ccc(Cl)c(Cl)c3)cc2F)c[nH]1 [Compound 15b] was 0.5

Note to self: CLR MIC recorded for Cl.Nc1nc(-c2ccc(NC(=O)c3cccc(I)c3)cc2)c[nH]1 [Compound 4b] was 32

Note to self: CLR MIC recorded for Cl.Nc1nc(-c2ccc(NC(=O)c3cc(F)c(F)c(F)c3)cc2)c[nH]1 [Compound 4v] was 1

Note to self: CLR MIC recorded for Cc1cc(-c2c[nH]c(N)n2)ccc1NC(=O)c1cc(Cl)cc(Cl)c1.Cl [Compound 10a] was 0.5

Note to self: CLR MIC recorded for Cl.Nc1nc(-c2ccc(NC(=O)c3cc(Cl)cc(Cl)c3)cc2Cl)c[nH]1 [Compound 10e] was 0.5

Note to self: CLR MIC recorded for Cl.Nc1nc(-c2ccc(NC(=O)c3ccc(Cl)cc3Cl)cc2)c[nH]1 [Compound 4t] was 4

Note to self: CLR MIC recorded for Cl.Nc1nc(-c2ccc(NC(=O)c3cc(Br)cc(Br)c3)cc2F)c[nH]1 [Compound 15a] was 2

Note to self: CLR MIC recorded for Cl.Nc1nc(-c2ccc(NC(=O)c3cc(I)c(I)c(I)c3)cc2)c[nH]1 [Compound 4w] was 32

Note to self: CLR MIC recorded for Cl.Nc1nc(-c2ccc(NC(=O)c3cccc(Br)c3)cc2)c[nH]1 [Compound 4c] was 32

Note to self: CLR MIC recorded for Cl.Nc1nc(-c2ccc(NC(=O)c3cccc(F)c3)cc2)c[nH]1 [Compound 4e] was 16

Note to self: CLR MIC recorded for Cl.Nc1nc(-c2ccc(NC(=O)c3ccc(C(F)(F)F)cc3)cc2)c[nH]1 [Compound 4f] was 32

Note to self: CLR MIC recorded for Cl.Nc1nc(-c2ccc(NC(=O)c3ccc(Br)cc3F)cc2)c[nH]1 [Compound 4u] was 2

Note to self: CLR MIC recorded for COc1cc(-c2c[nH]c(N)n2)ccc1NC(=O)c1cc(Cl)cc(Cl)c1.Cl [Compound 6a] was 0.5
